Cited source for all entries: patent US20210030857A1

target-or-system: human beta klotho / human FGFR1c receptor complex on cells (human, UniProt Q86Z14 1-1044; P11362 22-822)
Sequence (Q86Z14 whole entry, chain 1 of 2): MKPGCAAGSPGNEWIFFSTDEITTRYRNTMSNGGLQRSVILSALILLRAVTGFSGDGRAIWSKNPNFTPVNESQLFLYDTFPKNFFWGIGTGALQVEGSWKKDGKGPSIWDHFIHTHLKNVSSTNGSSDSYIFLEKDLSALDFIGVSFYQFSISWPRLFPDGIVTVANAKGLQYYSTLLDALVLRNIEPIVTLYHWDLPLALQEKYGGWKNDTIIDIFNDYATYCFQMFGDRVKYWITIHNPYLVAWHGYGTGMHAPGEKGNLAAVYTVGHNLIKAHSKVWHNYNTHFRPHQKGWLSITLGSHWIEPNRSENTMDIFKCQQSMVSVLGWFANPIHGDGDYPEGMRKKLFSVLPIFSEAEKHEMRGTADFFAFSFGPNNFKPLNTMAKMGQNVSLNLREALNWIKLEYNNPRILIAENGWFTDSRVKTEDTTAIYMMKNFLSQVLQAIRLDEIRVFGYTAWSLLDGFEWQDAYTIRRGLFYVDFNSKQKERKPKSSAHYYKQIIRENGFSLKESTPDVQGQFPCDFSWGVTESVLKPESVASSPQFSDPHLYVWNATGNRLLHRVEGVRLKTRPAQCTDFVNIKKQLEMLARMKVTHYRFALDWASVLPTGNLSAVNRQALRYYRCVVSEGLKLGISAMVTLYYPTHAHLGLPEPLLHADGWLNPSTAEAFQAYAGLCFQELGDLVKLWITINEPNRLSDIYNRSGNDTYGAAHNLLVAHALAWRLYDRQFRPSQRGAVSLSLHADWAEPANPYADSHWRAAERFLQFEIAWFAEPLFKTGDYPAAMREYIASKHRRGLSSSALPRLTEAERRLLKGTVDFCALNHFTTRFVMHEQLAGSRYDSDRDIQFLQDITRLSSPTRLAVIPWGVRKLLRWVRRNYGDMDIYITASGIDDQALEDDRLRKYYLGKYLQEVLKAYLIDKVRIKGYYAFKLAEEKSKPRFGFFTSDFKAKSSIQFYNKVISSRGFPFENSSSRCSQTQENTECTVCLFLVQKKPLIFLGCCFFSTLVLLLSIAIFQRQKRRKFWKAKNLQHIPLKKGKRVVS
Sequence (P11362 22-822 limits assumed, chain 2 of 2): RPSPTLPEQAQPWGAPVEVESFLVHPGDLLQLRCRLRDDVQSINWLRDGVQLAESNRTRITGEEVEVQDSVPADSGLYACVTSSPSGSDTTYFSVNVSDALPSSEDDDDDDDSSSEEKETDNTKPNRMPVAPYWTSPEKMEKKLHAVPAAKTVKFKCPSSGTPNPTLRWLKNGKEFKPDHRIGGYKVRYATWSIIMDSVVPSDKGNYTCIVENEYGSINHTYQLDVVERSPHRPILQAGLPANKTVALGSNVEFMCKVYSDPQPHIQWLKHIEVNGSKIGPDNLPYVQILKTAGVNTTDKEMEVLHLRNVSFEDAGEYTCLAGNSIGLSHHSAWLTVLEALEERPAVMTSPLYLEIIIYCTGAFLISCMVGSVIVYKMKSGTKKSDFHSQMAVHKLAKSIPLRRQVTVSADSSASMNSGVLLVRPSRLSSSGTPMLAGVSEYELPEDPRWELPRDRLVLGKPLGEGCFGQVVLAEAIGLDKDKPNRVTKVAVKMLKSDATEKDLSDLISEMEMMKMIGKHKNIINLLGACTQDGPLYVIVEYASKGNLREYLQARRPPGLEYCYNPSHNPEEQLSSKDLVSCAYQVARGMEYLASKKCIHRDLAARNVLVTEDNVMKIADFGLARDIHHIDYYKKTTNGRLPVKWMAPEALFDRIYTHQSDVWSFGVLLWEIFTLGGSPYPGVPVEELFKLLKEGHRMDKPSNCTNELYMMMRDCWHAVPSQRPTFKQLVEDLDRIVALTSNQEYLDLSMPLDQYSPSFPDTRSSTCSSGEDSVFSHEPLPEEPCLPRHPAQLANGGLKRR
assay-procedure: cell-based or functional assay

{"columns": ["binder", "unit-label", "relational-operator", "hAdip pERK assay EC50, Experiment - B"],
 "data": [
  ["antibody 1D19 (antibody, V domains shown, Murine monoclonal antibody) VH: QVQPQESGPELVKPGALVKISCKASGYTFTRYDINWMKQRPGQGLEWIGWIYPGDSSTKFNENFKDKATLTADKSSSTAYMQLSSLTSENSTVYFCARSDYYGSRSFTYWGQGTLVTVSA VL: DIVLTQSPASLAVSLGQRATISCRASKSVSTSGYSYMHWYQQKPGQPPKLLIYLASNLESGVPARFSGSGSGTDFTLNIHPVEEEDAATYYCQHSRELPYTFGGGTKLEIK", "nM", ">", 67],
  ["antibody 4P5 (antibody, V domains shown, Murine monoclonal antibody) VH: QVQLQQSGPELVKPGALVKISCKASGYTFTRYDINWVKKRPGQGLEWIGWIYPGDDSTKYNEKFKGKATLTADKSSSTAYMQLSSLTSENSAVYFCARSDYYGSRSFVYWGQGTLVTVSA VL: DILLTQSPASLAVSLGQRATISCRASKSVSTSGYSYMHWYQQKPGQPPKLLIYLASNLESGVPARFSGRGSGTDFTLNIHPVEEEDAATYYCHHSGELPYTFGGGTKLEIK", "nM", "=", 0.89],
  ["antibody 5H23 (antibody, V domains shown, Murine monoclonal antibody from hybridoma; also called 5H23-Alexa647 (labelled form)) VH: QVQLQQSGPELVKPGALVKISCKASGYTFTSYDINWVKQRPGQGLEWIGWIYPGDGSTKYNEKFKGKATLTADKSSRTAYMQLSSLTSENSAVYFCARSDYYGSRSFAYWGQGTLVTVSA VL: DIVLTQSPASLAVSLGQRATISCRASKSVSTSGYVYMHWNQQKPGQPPKLLIYLASYLESGVPARFSGSGSGTDFTLNIHPVEEEDAAIYYCQHSRDLTFPFGGGTKLEIK", "nM", "=", 1.66],
  ["antibody 1C17 (antibody, V domains shown, Murine monoclonal antibody) VH: QVQLQESGPGLVKPSQSLSLTCSVTGYSITSGYYWNWIRQFPGNKLEWMGYINYDGNSNYTPSLKNRISITRDTSKNQFFLKLNSVTPEDTATYYCARKGAYYSNYDSFDVWGTGTTVTVSS VL: DIKMTQSPSSMYASLGERVTITCKASQDINSYLSWVQQKPGKSPKTLIYRANRLVDGVPSRFSGSGSGQDYSLTISSLEYEDMGIYYCLQYDEFPFTFGSGTKLEIK", "nM", ">", 67],
  ["antibody 5F7 (antibody, V domains shown, Murine monoclonal antibody) VH: QVQPQESGPELVKPGALVKISCKASGYTFTRYDINWVKQRPGQGLEWIGWIYPGDISTKYNEKFKGKATLTADKSSSTAYMQLNSLTSENSAVYFCARSDYYGSRSFVYWGQGTLVTVSA VL: DIVLTQSPASLAVSLGQRATISCRASKSVSTSGYSYMHWYQQKPGQPPKLLIYLASNLESGVPARFSGSGSGTDFTLNIHPVEEEDAATYYCQHSRELPYTFGGGTKVEIK", "nM", ">", 67],
  ["antibody 2L12 (antibody, V domains shown, Murine monoclonal antibody) VH: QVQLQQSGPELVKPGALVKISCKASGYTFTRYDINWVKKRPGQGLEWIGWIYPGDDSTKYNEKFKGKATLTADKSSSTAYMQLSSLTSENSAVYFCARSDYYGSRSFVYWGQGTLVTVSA VL: DIVLTQSPASLPVSLGQRATISCRASKSVSTSGYSYLHWYQQKPGQPPKLLIYLASNLESGVPARFSGSGSGTDFTLNIHPVEEEDAATYYCQHSGELPYTFGGGTKLEIK", "nM", "=", 1.23],
  ["antibody 5C23 (antibody, V domains shown, Murine monoclonal antibody) VH: QVQPQESGPELVKPGALVKISCKASGYTFTRYDINWVKKRPGQGLEWIGWIYPGDGSTKYNEKFEGKATLTADKSSSTAYMQLSSLTSENSAVYFCARSDYYGSRSFVYWGQGTLVTVSA VL: DIVLTQSPDSLTVSLGQRATISCRASKSVSTSGYSYMHWYQQKPGQPPKLLIYLASNLESGVPARFSGSGSGTDFTLNIHPVEEEDAATYYCQHSRELPYTFGGGTKLEIK", "nM", ">", 67],
  ["antibody 1G19 (antibody, V domains shown, Murine monoclonal antibody) VH: QVQLQESGPGLVKPSQSLSLTCSVTGYSITSGYYWNWIRQFPGNKLEWMGYINYGGSNNYNPSLKNRISITRDTSKNQFFLKLTSVTTEDTATYYCARRGAYYSNYDSFDVWGTGTTVTVSS VL: DIKMTQSPSSMYASLGERVTITCKASQDINSYLSWFQQKPGKSPKTLIYRANRLVDGVPSRFSGSGSGQDYSLTISSLEYEEMGIYYCLQYDEFPYTFGGGTKLEIK", "nM", "=", 1.3],
  ["antibody 3N20 (antibody, V domains shown, Murine monoclonal antibody) VH: QVQLQESGAELARPGASVKLSCKVSGYIFTNYGISWVKQRTGQGLEWIGEIYPRSGNTYYNEKFKGKATLTADMSSSTAYMDLRSLTSEDSAVYFCARHWDGVLDYFDYWGQGTSLTVSS VL: DIVMTQSPSSLSVSAGEKVTMSCKSSQSLLNSGNQKNYLAWYQQKPGQPPKLLIYGASTRESGVPDRFTGSGSGTDFTLTISSVQAEDLAVYYCLNDHSYPFTFGAGTKLELK", "nM", ">", 67]
]}
